Experiment: Displacement of [3H]discodermolide from microtubule assessed as bound radioligand level at 20 uM treated after radioligand addition by competitive binding assay
// values below are reported Activity

# compound, Activity / %
measured = [
    ("C/C(=C\\c1csc(C)n1)[C@@H]1C[C@@H]2O[C@@H]2CCC[C@H](C)[C@H](O)[C@@H](C)C(=O)C(C)(C)[C@@H](O)CC(=O)O1", 95),
    ("C/C(=C\\c1csc(C)n1)[C@@H]1C[C@@H]2O[C@]2(C)CCC[C@H](C)[C@H](O)[C@@H](C)C(=O)C(C)(C)[C@@H](O)CC(=O)O1", 76),
    ("C=C/C=C\\[C@H](C)[C@H](OC(N)=O)[C@@H](C)[C@H](O)[C@@H](C)C/C(C)=C\\[C@H](C)[C@@H](O)[C@@H](C)/C=C\\[C@@H](O)C[C@@H]1OC(=O)[C@H](C)[C@@H](O)[C@H]1C [DISERMOLIDE]", 27),
    ("CC1=C[C@H]2[C@@H](O)[C@H](C)[C@@H](O)[C@@H]2[C@H]2[C@@H]3C4=C5O[C@](C)(CC[C@@H](OC4=O)[C@H]5C)[C@@H]3C[C@@H]12", 96),
]
